Assay Protocol: qHTS of pediatric cancer cell lines to identify multiple opportunities for drug repurposing: Primary screen for MG 63 (6-TG R) cells (AID 1347105); note: nearly all actives have a fitted effect of over 50% in size
Details: MG 63 (6-TG R) viability, CellTiter-Glo, 48 h; series mostly up to 46 µM
Inconclusive results are not listed. The source made the active and inactive calls. Calls come from the whole dose curve; as a rule, active = well fitted cell-killing curve with a large enough effect; inconclusive = small, poorly fitted or top-dose-only effect; inactive = no such curve, though single readings can be large or run the other way.
Respond with a class label; see Yes for active, No for inactive

## Task Record lookup: outcome of this test for CCc1cc(Cl)c(OC)c(C(=O)NC[C@@H]2CCCN2CC)c1O ?
## Result No

## Task Check the results log: what was the call for CC(CNC1CCCCC1)OC(=O)c1ccccc1 (centres undefined) ?
## Result No

## Task Check the results log: what was the call for NC(=O)C1(N2CCCCC2)CCN(CCCC(=O)c2ccc(F)cc2)CC1 ?
## Result No

## Task Outcome? C#C[C@]1(O)CC[C@H]2[C@@H]3[C@H](C)CC4=C(CCC(=O)C4)[C@H]3CC[C@@]21C
## Result No

## Task Recorded test call requested for O=[N+]([O-])c1cccc(S(=O)(=O)NCCNS(=O)(=O)c2cccc([N+](=O)[O-])c2)c1
## Result No

## Task Per the records of this test, what outcome belongs to CC(=C(CCOC(=O)C(C)C)SSC(CCOC(=O)C(C)C)=C(C)N(C=O)Cc1cnc(C)nc1N)N(C=O)Cc1cnc(C)nc1N ?
## Result No

## Task Just curious, what result did CC(C)NCC(O)c1ccc2ccccc2c1 (centres undefined) get here?
## Result No

## Task Which outcome was assigned to COc1ccc(CN(CCN(C)C)c2ncccn2)cc1 in this test?
## Result No

## Task What did the test return for CN(C)CCN1C(=O)c2ccccc2N(C)c2ccccc21 ?
## Result No

## Task Can you look up the reported call for OC[C@H]1O[C@@H]2O[C@H]3[C@H](O)[C@@H](O)[C@@H](O[C@H]4[C@H](O)[C@@H](O)[C@@H](O[C@H]5[C@H](O)[C@@H](O)[C@@H](O[C@H]6[C@H](O)[C@@H](O)[C@@H](O[C@H]7[C@H](O)[C@@H](O)[C@@H](O[C@H]8[C@H](O)[C@@H](O)[C@@H](O[C@H]1[C@H](O)[C@H]2O)O[C@@H]8CO)O[C@@H]7CO)O[C@@H]6CO)O[C@@H]5CO)O[C@@H]4CO)O[C@@H]3CO for me?
## Result No

## Task For c1ccc(CC2=NCCN2)cc1 , what call appears in the results of this test?
## Result No

## Task // outcome(item) with item = Cc1nc(-c2ccc(Cl)cc2)oc1COC(C)(C)C(=O)O
## Result No

## Task // return assay outcome for O=C(O)Cc1csc(-c2ccc(Cl)cc2)n1
## Result No

## Task For CCOC(=O)c1ccc(N)cc1 , what call appears in the results of this test?
## Result No

## Task Please indicate how the test categorized Nc1nc(N)c(-c2ccccc2)s1 .
## Result No

## Task Look up the recorded call for Cc1c[nH]c2ccccc12 in this test.
## Result No

## Task Can you look up the reported call for O=C(c1ccc(F)cc1)C1CCN(CCn2c(=S)[nH]c3ccccc3c2=O)CC1 for me?
## Result No

## Task Would you mind telling me which call this test gave CN1CCN(c2cc3c(cc2F)c(=O)c(C(=O)O)cn3-c2ccc(F)cc2)CC1 ?
## Result No

## Task Check the results log: what was the call for Cc1cccc(C)c1NC(=O)c1ccccc1C(=O)O ?
## Result No

## Task Write down the call the test reported for this molecule. Item: CCCCNc1ccc(C(=O)OCCOCCOCCOCCOCCOCCOCCOCCOCCOC)cc1
## Result No

## Task Test call, this molecule: CCCCCCCCCCCCCC(=O)OC(C)C
## Result No

## Task For COc1ccc2c(c1)c1c3n2CCN(C)C3=NCC1 , what call appears in the results of this test?
## Result No

## Task # lookup: test call for CCO[C@@H]1O[C@H](C(COCc2ccccc2)OCc2ccccc2)[C@H](OCc2ccccc2)[C@H]1O (some centres undefined)
## Result Yes

## Task Any idea what this test logged for CC(C)Cc1ccc(CC(=O)O)cc1 ?
## Result No

## Task What did this assay record as the result for C[N+]1(C)CCC(=C(c2ccccc2)c2ccccc2)CC1 ?
## Result No

## Task Please share the test call associated with Nc1ccc(C(=O)NCC(=O)O)cc1 .
## Result No

## Task Recorded test outcome, item Cc1cccc(C)c1NC(=O)CN1CCCCCC1
## Result No

## Task Hi, do you know how CCOC(=O)C(C#N)=C(c1ccccc1)c1ccccc1 came out in this test?
## Result No

## Task I would be grateful if you could indicate the recorded call for COc1ccc(C(Cl)=C(c2ccc(OC)cc2)c2ccc(OC)cc2)cc1 .
## Result No

## Task Just curious, what result did O=[N+]([O-])c1ccc(/C=N\O)o1 get here?
## Result No

## Task Query: recorded result category for C[N+]12CCC(CC1)C(OC(=O)C(O)(c1ccccc1)c1ccccc1)C2 (centres undefined) in this test
## Result No

## Task Just curious, what result did CCOC(=O)c1c(N)sc2c1CCN(Cc1ccccc1)C2 get here?
## Result No

## Task Hello, I am checking results. What call was entered for COc1ccc(/C=N/NC(=O)c2ccncc2)cc1OC ?
## Result No

## Task Just curious, what result did OC(C#CCN1CCCC1)(c1ccccc1)c1ccccc1 get here?
## Result No

## Task Identify the outcome logged in this assay for the molecule shown: O=C(O)C(Cc1cc(I)c(O)c(I)c1)c1ccccc1 (centres undefined)
## Result No

## Task Test call, this molecule: Cc1ccc(O)c([C@H](CCN(C(C)C)C(C)C)c2ccccc2)c1
## Result No

## Task What classification did NCCNC(=O)c1ccc(Cl)cn1 end up with in this test?
## Result No

## Task Identify the outcome logged in this assay for the molecule shown: OCCOCCN1CCN(C2=Nc3ccccc3Sc3ccccc32)CC1
## Result No

## Task Kindly provide the recorded test outcome for the following molecule: CC(=O)Nc1ncc([N+](=O)[O-])s1
## Result No
